conditions: in water, 308.2 K
measured_quantity: solubility (mole fraction)
Answers are plain numbers.

## Task Assign solubility (mole fraction) to the following record: CC(=O)N1CCN(c2ccc(OC[C@@H]3CO[C@@](Cn4ccnc4)(c4ccc(Cl)cc4Cl)O3)cc2)CC1 (racemic)
## Result 5e-07

###

settings: in PEG-200, 298.2 K
measured_quantity: solubility (mole fraction)
Answers are plain numbers.

## Task Assign solubility (mole fraction) to the following record: CC(=O)N1CCN(c2ccc(OC[C@@H]3CO[C@@](Cn4ccnc4)(c4ccc(Cl)cc4Cl)O3)cc2)CC1 (racemic)
## Result 0.00611

Source listed as BigSolDB 2.1.
